Recorded growth values for a group of compounds are listed next.
- Test system: UACC-257 melanoma
- measurement-protocol: NCI-60 one-dose screen, 48 h (100 = growth as untreated, 0 = no growth, -100 = all killed)
- reported-conditions: 10 µM unless noted
- Description: Cells are grown in 96 well plates and exposed to the test compound for 48 hours. Compounds are tested at a single concentration, which is 10^-5 M for most compounds. The reported endpoint is percent growth (GI% or GIPRCNT), where numbers from 0 - 100% represent growth inhibition, and numbers from -100% - 0 represent cell death. For example, a value of 40 represents 60% growth inhibition. A value of 0 means no net growth occurred over the course of the experiment. […]
Compounds without any hit were thinned out: in the full panel of roughly 83,000, 20% have a hit.
result-type: growth (%)

INSERT INTO measurements (compound_smiles, recorded_value) VALUES
  ('COc1ccc(S(=O)(=O)N(C(C)=O)c2ccccc2/C=C/c2cc[n+]([O-])cc2)cc1', 65.5),
  ('CN1CC[C@H](c2c(O)cc(O)c3c(=O)cc(-c4ccccc4Cl)oc23)[C@H](O)C1', -23.8),
  ('CCCCn1c(C)nc2ccc(Nc3nc(N4CCN(C)CC4)nc4nc[nH]c34)cc21', 101);
